- System: Candida albicans (Robin) Berkhout No 20/M
- METHOD: Pseudomycelium and mycelium phase test with Candida albicans (minimal inhibitory concentration, 100 % inhibition)
- Format: cell-based
- CONDITIONS: microaerophilic, 2 days, 37°C
- Text: Pseudomyzel- und Myzelphasentest mit Candida albicans: • Dieser Test berücksichtigt, daß C. albicans in vivo nicht nur Sproßzellen, sondern auch Pseudomyzel und echtes Myzel ausbilden kann (Dimorphie). […]
MHKMyzelph. overview
REPORTED PROPERTY: MHKMyzelph.

| COMPOUND | VALUE MEASURED |
| --- | --- |
| OC(Cn1cncn1)(c1ccccc1)c1ccc(Cl)cc1Cl (centres unmarked) [Beispiel 10] | <0,125 µg/ml |
| OC(Cn1cncn1)(c1cccc(Cl)c1)c1ccc(Cl)cc1Cl (centres unmarked) [Beispiel 15] | <0,125 µg/ml |
| OC(Cn1cncn1)(c1ccccc1)c1ccc(Cl)cc1Cl (centres unmarked) [Beispiel 11] | <0,125 µg/ml |
| OC(Cn1cncn1)(c1ccc(Cl)cc1)c1ccc(Cl)cc1Cl (centres unmarked) [Beispiel 4] | <0,125 µg/ml |
| OC(Cn1cncn1)(c1ccc(Cl)cc1)c1ccc(Cl)cc1 [Beispiel 2] | <0,125 µg/ml |
| OC(Cn1cncn1)(c1ccccc1Cl)c1ccc(Cl)cc1Cl (centres unmarked) [Beispiel 14] | 1 µg/mL |
| OC(Cn1cncn1)(c1ccc(Cl)cc1)c1ccc(Cl)cc1Cl (centres unmarked) [Beispiel 5] | <0,125 µg/ml |
| OC(Cn1cncn1)(c1cccc(Cl)c1)c1ccc(Cl)cc1Cl (centres unmarked) [Beispiel 16] | 1 µg/mL |
